# Test system: CCRF-CEM
# TEST SUMMARY: Tumor cell proliferation inhibition (CellTiter-Meiluncell Luminescent Cell Viability Assay), CCRF-CEM
# PROTOCOL CONDITIONS: Homo sapiens, 96 h, read-out: inhibitory activity (IC50, nM) against tumor cells proliferation, CCRF-CEM
PROPERTY: IC50

- O=C1CCC(N2Cc3cc(CN4CCC(c5ccc(F)cc5)CC4)ccc3C2=O)C(=O)N1 (stereo not drawn): 10 to 50 nM
- O=C1CCC(N2Cc3cc(CN4CCN(c5cccc(F)n5)CC4)ccc3C2=O)C(=O)N1 (stereo not drawn): 10 to 50 nM

Hi, could you look up IC50 for each item in my list?
1. O=C1CCC(N2Cc3cc(CN4CCC(c5cccc(Br)c5)CC4)ccc3C2=O)C(=O)N1 (stereo not drawn)
2. Nc1cccc2c1C(=O)N(C1CCC(=O)NC1=O)C2=O (stereo not drawn) [pomalidomide, reference compound]
3. COc1cccc(N2CCN(Cc3ccc4c(c3)CN(C3CCC(=O)NC3=O)C4=O)CC2)c1 (stereo not drawn)

1 to 5 nM
> 10000 nM
10 to 50 nM

Given O=C1CCC(N2Cc3cc(CN4CCN(c5cccc6sccc56)CC4)ccc3C2=O)C(=O)N1 (stereo not drawn) , respond with its IC50.
1 to 5 nM

---

# System: NCI-H1975
# TEST SUMMARY: Tumor cell proliferation inhibition (CellTiter-Meiluncell Luminescent Cell Viability Assay), NCI-H1975
# PROTOCOL CONDITIONS: Homo sapiens, NCI-H1975, 96 h, read-out: inhibitory activity (IC50, nM) against tumor cells proliferation, H1975
PROPERTY: IC50

Previously resolved entries follow.
• O=C1CCC(N2Cc3cc(CN4CCN(c5cccc(Cl)c5Cl)CC4)c(F)cc3C2=O)C(=O)N1 (stereo not drawn) = 10 to 50 nM
• O=C1CCC(N2Cc3cc(CN4CCC(c5cccc(F)c5F)CC4)ccc3C2=O)C(=O)N1 (stereo not drawn) = 10 to 50 nM

Under NCI-H1975, report IC50 for O=C1CCC(N2Cc3cc(CN4CC=C(c5c[nH]c6ncccc56)CC4)ccc3C2=O)C(=O)N1 (stereo not drawn)
10 to 50 nM

---

# System: NCI-H1975
# TEST SUMMARY: Tumor cell proliferation inhibition (CellTiter-Meiluncell Luminescent Cell Viability Assay), NCI-H1975
# PROTOCOL CONDITIONS: Homo sapiens, NCI-H1975, 96 h, read-out: inhibitory activity (IC50, nM) against tumor cells proliferation, H1975
For each entry below, report its IC50 value.

Previously resolved entries follow.
* Cc1cscc1C1=CCN(Cc2ccc3c(c2)CN(C2CCC(=O)NC2=O)C3=O)CC1 (stereo not drawn) | 1 to 5 nM
* O=C1CCC(N2Cc3cc(CN4CCN(c5cccc(C(F)(F)F)n5)CC4)ccc3C2=O)C(=O)N1 (stereo not drawn) | 100 to 500 nM
* O=C1CCC(N2Cc3cc(CN4C5CC4CN(c4cccc(Cl)c4Cl)C5)ccc3C2=O)C(=O)N1 (stereo not drawn) | 100 to 500 nM
* O=C1CCC(N2Cc3cc(CN4CCC(c5cccc(C(F)(F)F)c5)CC4)ccc3C2=O)C(=O)N1 (stereo not drawn) | 10 to 50 nM
* O=C1CCC(N2Cc3cc(CN4CC=C(c5ccnc(F)c5F)CC4)ccc3C2=O)C(=O)N1 (stereo not drawn) | 100 to 500 nM
* O=C1CCC(N2Cc3cc(CN4CCC(c5ccccc5)CC4)ccc3C2=O)C(=O)N1 (stereo not drawn) | 500 to 1000 nM

Hi, could you look up IC50 for each item in my list?
1. O=C1CCC(N2Cc3cc(CN4CCN(c5ccccc5Br)CC4)ccc3C2=O)C(=O)N1 (stereo not drawn)
2. O=C1CCC(N2Cc3cc(CN4CCC(c5cccc(Cl)c5Cl)CC4)ccc3C2=O)C(=O)N1 (stereo not drawn)
3. O=C1CCC(N2Cc3cc(CN4CCN(c5cc(F)cc(F)c5)CC4)ccc3C2=O)C(=O)N1 (stereo not drawn)

["100 to 500 nM", "5 to 10 nM", "100 to 500 nM"]
